biological target: Factor X (FX), P00742
Sequence (P00742 whole entry, looked up): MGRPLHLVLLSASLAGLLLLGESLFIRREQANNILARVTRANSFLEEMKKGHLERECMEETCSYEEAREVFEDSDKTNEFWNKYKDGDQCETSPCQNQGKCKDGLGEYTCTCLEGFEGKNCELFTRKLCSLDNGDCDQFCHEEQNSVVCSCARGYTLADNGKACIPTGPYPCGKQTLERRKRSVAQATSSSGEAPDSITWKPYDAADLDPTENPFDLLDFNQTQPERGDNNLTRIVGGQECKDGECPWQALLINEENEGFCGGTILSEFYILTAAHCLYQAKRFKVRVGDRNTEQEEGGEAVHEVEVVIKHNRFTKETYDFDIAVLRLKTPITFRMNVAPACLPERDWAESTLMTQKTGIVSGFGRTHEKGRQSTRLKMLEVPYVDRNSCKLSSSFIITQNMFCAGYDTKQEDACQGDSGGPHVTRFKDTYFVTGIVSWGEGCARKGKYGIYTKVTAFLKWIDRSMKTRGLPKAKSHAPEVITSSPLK
KM (nM); Catalytic activity of FIXa variants (KM) values, listed per item
# do not omit the unit; it follows the number

Known results for proteins:
protein="FIXa-K247N/N249S/N260S/R318Y/R338E/R403E/E410N (protein) chain 1: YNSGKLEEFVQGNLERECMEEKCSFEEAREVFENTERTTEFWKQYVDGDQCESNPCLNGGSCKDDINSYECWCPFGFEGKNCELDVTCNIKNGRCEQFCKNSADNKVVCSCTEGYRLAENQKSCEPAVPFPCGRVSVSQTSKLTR chain 2: VVGGEDAKPGQFPWQVVLNGKVDAFCGGSIVNEKWIVTAAHCVETGVKITVVAGEHNIEETEHTEQNRSVIRIIPHHNYSAAINKYNHDIALLELDEPLVLNSYVTPICIADKEYTNIFLKFGSGYVSGWGRVFHKGYSALVLQYLRVPLVDRATCLESTKFTIYNNMFCAGFHEGGRDSCQGDSGGPHVTEVEGTSFLTGIISWGEECAMKGKYGIYTKVSEYVNWIKNKTKLT" test_result="62.2 nM"
protein="FIXa-N260S/R318Y/R338E/R403E/E410N (protein) chain 1: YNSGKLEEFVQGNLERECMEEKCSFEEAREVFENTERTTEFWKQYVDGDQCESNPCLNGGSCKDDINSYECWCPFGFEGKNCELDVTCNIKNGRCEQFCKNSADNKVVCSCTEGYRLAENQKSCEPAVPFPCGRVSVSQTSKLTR chain 2: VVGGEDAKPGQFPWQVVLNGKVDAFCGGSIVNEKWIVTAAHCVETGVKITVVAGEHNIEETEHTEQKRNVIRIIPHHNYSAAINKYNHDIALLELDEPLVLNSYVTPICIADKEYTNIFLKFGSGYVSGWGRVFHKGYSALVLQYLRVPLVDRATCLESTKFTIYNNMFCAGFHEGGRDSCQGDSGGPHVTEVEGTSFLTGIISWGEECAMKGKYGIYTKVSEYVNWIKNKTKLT" test_result="72.4 nM"

What does the data say about its KM (nM); Catalytic activity of FIXa variants (KM)? Entry: FIXa-D104N/K106S/Y155F/K247N/N249S/N260S (protein) chain 1: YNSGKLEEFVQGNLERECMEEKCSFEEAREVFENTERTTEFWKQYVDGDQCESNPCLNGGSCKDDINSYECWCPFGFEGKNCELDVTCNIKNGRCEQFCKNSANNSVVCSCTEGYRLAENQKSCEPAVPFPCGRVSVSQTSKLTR chain 2: VVGGEDAKPGQFPWQVVLNGKVDAFCGGSIVNEKWIVTAAHCVETGVKITVVAGEHNIEETEHTEQNRSVIRIIPHHNYSAAINKYNHDIALLELDEPLVLNSYVTPICIADKEYTNIFLKFGSGYVSGWGRVFHKGRSALVLQYLRVPLVDRATCLRSTKFTIYNNMFCAGFHEGGRDSCQGDSGGPHVTEVEGTSFLTGIISWGEECAMKGKYGIYTKVSRYVNWIKEKTKLT 68.5 nM

# input protein: FIXa-D104N/K106S/N260S/R318Y/R338E/R403E/E410N (protein) chain 1: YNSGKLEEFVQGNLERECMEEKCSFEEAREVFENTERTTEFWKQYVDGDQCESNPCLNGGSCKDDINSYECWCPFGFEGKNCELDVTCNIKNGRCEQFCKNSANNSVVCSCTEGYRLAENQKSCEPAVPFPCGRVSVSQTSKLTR chain 2: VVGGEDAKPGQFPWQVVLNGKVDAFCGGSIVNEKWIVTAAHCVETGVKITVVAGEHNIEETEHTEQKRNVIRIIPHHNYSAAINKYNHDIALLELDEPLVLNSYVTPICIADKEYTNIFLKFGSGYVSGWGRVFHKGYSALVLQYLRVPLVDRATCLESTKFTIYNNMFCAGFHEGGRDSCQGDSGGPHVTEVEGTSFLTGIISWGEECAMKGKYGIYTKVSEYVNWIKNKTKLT ; wanted: its KM (nM); Catalytic activity of FIXa variants (KM) 61.1 nM
